Values from patent US7432342

biological target: PKA RIIα (full-length) (mouse, UniProt P12367); assay: FP
Sequence (P12367 2-401): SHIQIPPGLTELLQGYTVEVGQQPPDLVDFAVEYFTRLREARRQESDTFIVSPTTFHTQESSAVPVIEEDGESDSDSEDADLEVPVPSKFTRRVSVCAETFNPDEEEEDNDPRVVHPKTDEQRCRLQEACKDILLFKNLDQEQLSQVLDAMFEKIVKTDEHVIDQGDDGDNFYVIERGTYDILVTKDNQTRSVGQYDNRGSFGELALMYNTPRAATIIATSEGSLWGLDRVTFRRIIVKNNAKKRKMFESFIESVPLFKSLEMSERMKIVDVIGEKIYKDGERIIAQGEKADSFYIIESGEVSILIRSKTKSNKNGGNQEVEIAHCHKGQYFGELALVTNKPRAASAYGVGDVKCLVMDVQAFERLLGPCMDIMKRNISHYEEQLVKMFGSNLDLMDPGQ
pKd: −log10 of the molar value. Ends that are not written are not given here.
Measured Property: pKd

Some binders with known pKd results, for comparison:
{"columns": ["Binder", "pKd"],
 "data": [
  ["FEELAWKIAKMIISDVFQQC [PV-49]", 8.60],
  ["QEEFAWKIAKMIVSDVFQQC [PV-47]", 7.05],
  ["Ac-DLAWKIAKMIVSDVMQQC [Ac-DLAWKIAKMIVSDVMQQC]", 6.97],
  ["QEEFAWKIAKMIISDVFQQC [PV-48]", 6.91],
  ["FEELAWKIAKMIWSDVFQQC [AKB(RI) PV-38]", 6.34]
]}

I: FEELAWKIAKMIWSDVMQQC [PV-37]
II: VQGNTDEAQEELAWKIAKMIWSDVMQQC [V21W]
III: VQGNTDEAQEELAWKIAKMIVSDVMQQC(tetramethylrhodamine) [AKB(dual) WT]
// sort entries: pKd, high to low Put the labels in the order asked and list them. III, II, I
(III: 8.66, II: 7.08, I: 6.82)
